target: UniProtKB P63146
Please respond with reported IC50 for every item in the list.
Form entry: enter the amount, then its unit.

What does the data say about its IC50? Entry: O=c1cc2oc3cc(O)c(O)cc3c(-c3ccccc3O)c-2cc1O
4.46 µM

Could you do the same for CN(C)c1ccc(-c2c3cc(O)c(=O)cc-3oc3cc(O)c(O)cc23)cc1 , please?
13.2 µM

---

target: Rad6 (Homo sapiens)
Sequence (P63146 whole entry): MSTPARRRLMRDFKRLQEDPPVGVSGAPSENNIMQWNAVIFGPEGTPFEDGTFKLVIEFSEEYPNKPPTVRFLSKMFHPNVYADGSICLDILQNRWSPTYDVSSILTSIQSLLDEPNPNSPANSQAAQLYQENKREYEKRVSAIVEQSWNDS
observable: Kd (µM)
Note: unit µM is implicit; provide only the numeric part.

Param readout= Kd; system= Rad6 (Homo sapiens); entry= O=c1cc2oc3cc(O)c(O)cc3c(-c3ccccc3O)c-2cc1O [NSC 9037] ; returns value.
3.79
